- measured.target: Cellular tumor antigen p53 (Homo sapiens) (UniProt P04637)
- Sequence (P04637 whole entry, looked up): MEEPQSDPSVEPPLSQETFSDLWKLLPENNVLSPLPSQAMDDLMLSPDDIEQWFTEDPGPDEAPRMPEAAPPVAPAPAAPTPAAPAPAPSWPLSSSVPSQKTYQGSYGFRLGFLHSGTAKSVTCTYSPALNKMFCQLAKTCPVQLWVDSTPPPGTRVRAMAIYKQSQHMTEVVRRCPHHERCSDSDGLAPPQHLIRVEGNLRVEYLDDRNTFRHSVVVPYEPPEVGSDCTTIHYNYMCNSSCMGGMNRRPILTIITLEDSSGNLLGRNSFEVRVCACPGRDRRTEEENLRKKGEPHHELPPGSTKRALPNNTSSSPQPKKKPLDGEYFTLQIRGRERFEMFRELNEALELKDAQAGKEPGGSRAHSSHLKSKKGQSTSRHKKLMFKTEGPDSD
- assay.protocol: TOX21_p53_BLA_p2_ratio: Tox21 HCT-116 p53 Agonism Beta-lactamase Assay, Ratio, Phase 2 (AID 2283592)
Inconclusive results are not listed. Calls of active or inactive are those of the source. The calls were made as follows: active = hit-call score of the fitted dose curve at least 0.9, where 1 is the maximum; inconclusive = response in the unintended direction; inactive = score below 0.9.
# valid calls are 1 = active, 0 = inactive; nothing else

# count of solved cases: 5
O=C(CBr)c1ccc(O)cc1
0
O=C(CCl)NCO
0
O=C(NC(=O)c1c(F)cccc1F)Nc1cc(Cl)c(OC(F)(F)C(F)C(F)(F)F)cc1Cl (stereo unspecified)
0
[F][Sn]([c]1ccccc1)([c]1ccccc1)[c]1ccccc1
1
OC(c1ccc(Cl)cc1)(c1ccc(Cl)cc1)c1cccnc1
1

Below: the item to evaluate.
Identify the outcome logged in this assay for the compound shown: Brc1ccc(Br)cc1
0

====

- assay.protocol: ATG_GLI_CIS: Attagene CIS-FACTORIAL HepG2 Assay for human Zinc Finger Protein GLI1 (AID 2282945)
- condition.info: HepG2, Attagene cis-factorial reporter mRNA, GLI element; actives raise or lower the signal
The source made the active and inactive calls. The calls were made as follows: active = hit-call score of the fitted dose curve at least 0.9, where 1 is the maximum; inactive = score below 0.9.
# valid calls are active, inactive; nothing else

# count of solved cases: 8
CCCCN(CCCC)C(=S)[S-].CCCCN(CCCC)C(=S)[S-].[Ni+2]
inactive
COCCl
inactive
C[C@H]1C(=O)O[C@@H]2CCN3CC=C(COC(=O)[C@](C)(O)[C@]1(C)O)[C@H]23
inactive
CCOCn1c(-c2ccc(Cl)cc2)c(C#N)c(Br)c1C(F)(F)F
active
CCOP(=O)(OCC)OC(=CCl)c1ccc(Cl)cc1Cl
inactive
CCCCCCCCCCCCCl
inactive
CCOP(=S)(OCC)Oc1ccc(Cl)cc1Cl
inactive
CC(C)(C)c1ccccc1O
inactive

Identify the outcome logged in this assay for the compound shown: CCC(C)(C#N)N=NC(C)(C#N)CC (stereo unspecified)
inactive

Identify the outcome logged in this assay for the compound shown: CC(F)(F)CC(F)(F)F
inactive

Identify the outcome logged in this assay for the compound shown: O=[N+]([O-])c1ccc(Nc2ccccc2)cc1
inactive

====

- Read-out: CD40, CD40 (gene 958)
- assay.protocol: BSK_SAg_CD40: BioMAP Diversity Plus: SAg Assay for CD40 Biomarker Activity (AID 2283088)
- condition.info: primary human HUVEC with PBMC; actives raise or lower the signal
- Procedure: BSK_SAg is a cell-based, multiplexed-readout assay that uses umbilical vein endothelium and peripheral blood mononuclear cells, a human vascular primary cell co-culture, with measurements taken at 24 hours after chemical dosing in a 96-well plate.BSK_SAg_CD40 is one of 10 assay component(s) measured or calculated from the BSK_SAg assay. […] This assay endpoint, BSK_SAg_CD40, was analyzed with bidirectional fitting relative to DMSO as the negative control and baseline of activity. […]
Calls of active or inactive are those of the source. How the source made its calls: active means hit-call score of the fitted dose curve at least 0.9, where 1 is the maximum; inactive means score below 0.9.
# valid calls are true (1) for active, false (0) for inactive; nothing else

OC(Cc1ccccc1Cl)(Cn1[nH]cnc1=S)C1(Cl)CC1 (centres undefined)
true (1)
CC(C)(C)c1ccccc1O
false (0)
Clc1cccc(Cl)c1
false (0)

Below: the item to evaluate.
Identify the outcome logged in this assay for the molecule shown: C#CCOC(=O)/C=C(C)/C=C/CC(C)CCCC(C)C (centres undefined)
false (0)

====

- Read-out: Matrix Metallopeptidase 1 (MMP1), MMP1 (gene 4312)
- assay.protocol: BSK_hDFCGF_MMP1: BioMAP Diversity Plus: hDFCGF Assay for Matrix Metallopeptidase 1 (MMP1) Biomarker Activity (AID 2283064)
- condition.info: primary human foreskin fibroblasts; actives raise or lower the signal
Calls of active or inactive are those of the source. The calls were made as follows: active = hit-call score of the fitted dose curve at least 0.9, where 1 is the maximum; inactive = score below 0.9.
# valid calls are t = active, f = inactive; nothing else

# count of solved cases: 5
O=C(O)COc1cc(Cl)c(Cl)cc1Cl
f
Cc1ccccc1OP(=O)(Oc1ccccc1C)Oc1ccccc1C
t
O=S(=O)(c1ccc(Cl)cc1)c1cc(Cl)c(Cl)cc1Cl
f
Cc1cc(Cl)ccc1OC(C)C(=O)O (stereo unspecified)
f
Oc1c(Cl)cc(Cl)cc1Cl
f

Identify the outcome logged in this assay for the compound shown: OC(Cc1ccccc1Cl)(Cn1cncn1)C1(Cl)CC1 (stereo unspecified)
f
